From: patent EP4786492A1

# test target: human DLL3 protein (extracellular segment, His tag) (human) (UniProt Q9NYJ7)
# Sequence (Q9NYJ7 27-492): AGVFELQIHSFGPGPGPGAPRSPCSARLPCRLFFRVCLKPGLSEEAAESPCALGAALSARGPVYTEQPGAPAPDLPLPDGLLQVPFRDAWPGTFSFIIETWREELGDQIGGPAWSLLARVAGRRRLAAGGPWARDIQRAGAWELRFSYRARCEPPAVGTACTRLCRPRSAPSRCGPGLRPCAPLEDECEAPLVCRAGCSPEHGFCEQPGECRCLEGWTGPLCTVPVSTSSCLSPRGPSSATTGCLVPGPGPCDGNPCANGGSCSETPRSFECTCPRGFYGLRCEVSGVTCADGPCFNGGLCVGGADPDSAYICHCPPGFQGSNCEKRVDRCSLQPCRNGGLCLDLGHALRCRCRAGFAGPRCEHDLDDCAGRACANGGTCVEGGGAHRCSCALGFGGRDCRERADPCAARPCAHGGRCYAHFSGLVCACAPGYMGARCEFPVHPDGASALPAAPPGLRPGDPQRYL
# procedure details: SPR (Biacore 8K), antibody captured on Protein A chip, DLL3 antigen in solution, 1:1 Langmuir fit
Here the recorded log10(kon) is given for each entry.
quantity measured: log10(kon) (log10 of the value in M⁻¹ s⁻¹)

binder | quantity measured | assay value
Hab006VL1VH4-hFc (scFv, part only; not given: VL-VH linker and human IgG1 Fc, V domains shown, not shown: another chain or arm of the molecule; a dimerising Fc or GST; small tags and cut ends) VL: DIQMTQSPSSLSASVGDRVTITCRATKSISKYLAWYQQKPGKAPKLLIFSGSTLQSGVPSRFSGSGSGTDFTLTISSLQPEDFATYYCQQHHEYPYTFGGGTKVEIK VH: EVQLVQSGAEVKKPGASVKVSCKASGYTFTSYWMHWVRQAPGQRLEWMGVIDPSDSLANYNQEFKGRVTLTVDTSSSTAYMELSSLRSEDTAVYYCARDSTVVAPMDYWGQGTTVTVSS | log10(kon) | 5.59
Hab009VL3aVH1-hFc (scFv, part only; not given: VL-VH linker and human IgG1 Fc, V domains shown, not shown: another chain or arm of the molecule; a dimerising Fc or GST; small tags and cut ends) VL: DIVMTQSPLSLPVTPGEPASISCRASQTISDYLHWYLQKSHQSPQLLIKYASQSISGVPDRFSGSGSGTDFTLKISRVEAEDVGVYYCQQGHSFPLTFGQGTKLEIK VH: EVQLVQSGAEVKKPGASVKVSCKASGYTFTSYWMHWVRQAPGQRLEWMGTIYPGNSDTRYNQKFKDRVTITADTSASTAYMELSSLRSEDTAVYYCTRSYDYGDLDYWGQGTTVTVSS | log10(kon) | 6.76
Hab008L3H2a-hFc (scFv, part only; not given: VL-VH linker and human IgG1 Fc, V domains shown, not shown: another chain or arm of the molecule; a dimerising Fc or GST; small tags and cut ends) VL: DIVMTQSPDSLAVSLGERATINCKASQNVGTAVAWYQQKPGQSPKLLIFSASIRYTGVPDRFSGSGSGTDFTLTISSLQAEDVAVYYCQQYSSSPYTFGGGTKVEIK VH: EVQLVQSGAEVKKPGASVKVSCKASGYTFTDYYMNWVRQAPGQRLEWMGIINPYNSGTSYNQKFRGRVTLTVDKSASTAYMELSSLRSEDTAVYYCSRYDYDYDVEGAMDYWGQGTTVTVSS | log10(kon) | 5.88
Hab008L1H2a-hFc (scFv, part only; not given: VL-VH linker and human IgG1 Fc, V domains shown, not shown: another chain or arm of the molecule; a dimerising Fc or GST; small tags and cut ends) VL: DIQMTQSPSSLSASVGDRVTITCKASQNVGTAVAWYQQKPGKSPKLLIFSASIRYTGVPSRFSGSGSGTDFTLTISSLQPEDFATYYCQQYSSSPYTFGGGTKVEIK VH: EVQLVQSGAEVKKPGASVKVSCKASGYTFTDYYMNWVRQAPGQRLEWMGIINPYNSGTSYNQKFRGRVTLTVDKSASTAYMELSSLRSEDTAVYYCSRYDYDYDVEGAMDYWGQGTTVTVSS | log10(kon) | 5.78
mab013 scFv-hFc (Fc fusion, part only; not given: linker and human IgG1 Fc, not shown: a dimerising Fc or GST) scFv, part: DIVLTQSPASLAVSLGQRATISCRASKSVSTSGFSYMHWYQQKPGQPPKLLIYLASNLESGVPARFSGSGSGTDFTLNIHPVEEEDAATYYCQHSRELPFTFGSGTKLEIKQVQLQQSGAELVKPGASVRISCKASGYAFSNYWINWVKQRPGKGLEWIGQINPGDGDTIYNGKFKGKATLTADKSSSTAYMQLSSLTSEDSAVYFCEREGRNYGDFAYWGQGTTLTVSS | log10(kon) | 6.49
